Each recorded value in this set is attributed to patent US20260258115A1.

pKd values for the binders below.
# testedOn: RSV prefusion F (preF), DS-Cav1 stabilized trimer, subtype A (Respiratory Syncytial Virus, subtype A, UniProt P03420 26-513)
# protocolDetails: BLI, IgG on anti-human IgG sensors, 100 nM antigen, apparent KD
API: returns pKd as number; meaning -log10 of concentration in mol/L.

binder: ADI-41836 (antibody, V domains shown) VH: EVQLLESGAEVKKPGASVKVSCRASGYTFTSNTLHWVRQAPGQGLEWMGWINADNGNTRYSQKFQGRVTITRDTSANTAYMELSSLISEDTAVYYCAREWSGFWSGLNWFEPWGQGTLVTVSS VL: QSVLTQPPSVSGAPGQRVTISCTGSSSNIGSGNDVHWYQQFPGTAPKVLIYVNSIRPSGVSDRFSGSKSGTSASLAITGLRAEDEADYYCQSYDSSLNGVAFGGGTKLTVL
measValue: 8.24

Then there is this binder:
Query: # query: pKd of entry ADI-41837 (antibody, V domains shown, also called Ab 937; Antibody Number 937) VH: QVQLVQSGAEVKKPGASVKVSCKASGYTFTSYGISWVRQAPGQGLEWMGWISAYSGDTDYAQKLQGRVTMTTDTATSTAYMELRSLRSDDTAVYYCARDAHCSSTNCYIDLGGAPVDYWGQGTLVTVSS VL: DIVLTQTPLSLSVTLGQPASISCRSSQSLVYIDGYTYLNWFQQRPGQSPRRLIYKVSNRDSGVPDRFSGSGSGTDFTLKISRVEAEDVGVYYCMQGAHWPWTFGQGTKVEIK
Response: 8.15
